The values you see were collected from the supplement of paper PMC8728848.

- experimentalSystem: GlcNAc(b1-2)Man(a1-3)[GlcNAc(b1-4)][GlcNAc(b1-2)Man(a1-6)]Man(b1-4)GlcNAc(b1-4)[Fuc(a1-6)]GlcNAc
- methodDescription: glycan array binding signal (z-score within array); higher = stronger binding
- conditionParameters: glycan notation: IUPAC condensed, linker removed
This is one part of a sample in which the strongest signals are shown more often than they occur.

{"binder": "Epa13 (Candida glabrata) (protein) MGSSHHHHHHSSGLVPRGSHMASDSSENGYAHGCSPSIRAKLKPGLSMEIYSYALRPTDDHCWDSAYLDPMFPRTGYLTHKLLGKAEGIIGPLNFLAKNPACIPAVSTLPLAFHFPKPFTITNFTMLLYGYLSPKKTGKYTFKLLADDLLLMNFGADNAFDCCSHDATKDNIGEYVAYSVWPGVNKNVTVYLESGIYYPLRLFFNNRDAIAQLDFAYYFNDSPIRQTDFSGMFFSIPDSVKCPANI", "glycan array binding signal (z-score)": 0.145}
{"binder": "Epa15 (Candida glabrata) (protein) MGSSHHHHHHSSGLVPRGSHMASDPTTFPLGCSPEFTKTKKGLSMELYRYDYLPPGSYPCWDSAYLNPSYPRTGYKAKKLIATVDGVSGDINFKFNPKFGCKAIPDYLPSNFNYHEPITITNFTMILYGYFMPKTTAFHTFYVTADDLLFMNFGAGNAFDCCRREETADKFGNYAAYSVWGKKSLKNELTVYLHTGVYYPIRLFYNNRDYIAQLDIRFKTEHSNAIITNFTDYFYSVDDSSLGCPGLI", "glycan array binding signal (z-score)": -0.557}
{"binder": "Apa (Mycobacterium tuberculosis), Rv1860 (protein) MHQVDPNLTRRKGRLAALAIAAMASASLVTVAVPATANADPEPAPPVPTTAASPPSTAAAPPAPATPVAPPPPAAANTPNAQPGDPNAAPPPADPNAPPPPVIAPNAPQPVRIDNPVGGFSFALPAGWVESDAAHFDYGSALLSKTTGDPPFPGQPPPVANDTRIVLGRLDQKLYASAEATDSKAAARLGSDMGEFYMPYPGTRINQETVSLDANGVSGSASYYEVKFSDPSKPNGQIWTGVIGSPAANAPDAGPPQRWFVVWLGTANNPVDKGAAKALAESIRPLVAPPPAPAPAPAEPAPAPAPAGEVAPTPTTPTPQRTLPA", "glycan array binding signal (z-score)": -0.607}
{"binder": "Flo1 (Saccharomyces cerevisiae), P32768 (protein) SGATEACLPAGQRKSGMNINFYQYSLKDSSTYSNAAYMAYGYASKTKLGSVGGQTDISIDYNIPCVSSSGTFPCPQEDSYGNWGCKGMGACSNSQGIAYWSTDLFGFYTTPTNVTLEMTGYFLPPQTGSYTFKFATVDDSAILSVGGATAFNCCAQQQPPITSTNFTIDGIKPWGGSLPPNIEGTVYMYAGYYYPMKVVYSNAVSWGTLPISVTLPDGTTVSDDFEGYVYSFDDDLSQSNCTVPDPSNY", "glycan array binding signal (z-score)": 0.011}
{"binder": "Pwp4 (Candida glabrata) (protein) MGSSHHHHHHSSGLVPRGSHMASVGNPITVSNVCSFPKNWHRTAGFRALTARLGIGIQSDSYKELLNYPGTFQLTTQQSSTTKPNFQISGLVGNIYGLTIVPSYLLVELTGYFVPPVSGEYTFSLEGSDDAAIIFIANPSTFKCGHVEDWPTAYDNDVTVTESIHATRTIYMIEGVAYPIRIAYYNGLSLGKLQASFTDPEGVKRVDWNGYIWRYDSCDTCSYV", "glycan array binding signal (z-score)": -1}
{"binder": "Epa22 (Candida glabrata) (protein) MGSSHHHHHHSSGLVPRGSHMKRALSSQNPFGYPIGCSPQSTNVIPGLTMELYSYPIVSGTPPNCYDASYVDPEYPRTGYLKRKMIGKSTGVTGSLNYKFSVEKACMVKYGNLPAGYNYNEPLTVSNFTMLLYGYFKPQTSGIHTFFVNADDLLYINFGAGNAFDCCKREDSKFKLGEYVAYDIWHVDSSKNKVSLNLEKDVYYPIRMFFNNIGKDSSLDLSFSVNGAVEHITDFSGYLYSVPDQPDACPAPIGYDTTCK", "glycan array binding signal (z-score)": -0.35}
